Assay: growth suppression of yeast trafficking mutant, preliminary HTS, modulators of trafficking downstream of Golgi apparatus project, 1536-format plate, OD 615 nm (AID 637)
Settings: yeast transport mutant growth, absorbance 615 nm, 18 h
Active and inactive are the calls of the source. No stated cut-off is given here; in the data, active means inhibition above about 30%; inactive means the rest.
Thanks in advance; please answer with one of these: 1 for active, 0 for inactive

Examples with answers:
1) CCOC(=O)C1CCCN(C(=O)c2sc3nc(-c4ccccc4)cn3c2C)C1 (stereo not given): 0
2) CCOc1ccccc1Nc1nnc(SCC(=O)N2CCCC2)s1: 0
3) O=C(NCc1ccco1)c1c2c(nc3ccccc13)CCC2: 0
4) CCOC(=O)c1c(-c2ccc(C)o2)csc1NC(=O)CN1CCN(CC)CC1: 0
5) COc1ccccc1-c1c(C)nn2c(C)c(C(C)=O)cnc12: 0

Now consider a different compound.
[ask] What call does the record list for Cc1nc2ccccc2c(=O)n1NC(=O)Nc1ccccc1 ?
[reply] 0
